This listing pairs sequences with measured recombinant barcode read abundance (log10).
- assay-info: recombinant barcode read abundance after kanamycin selection (control-corrected) (log10(CPM+1)); higher = more efficient recombination; sequences stand for … in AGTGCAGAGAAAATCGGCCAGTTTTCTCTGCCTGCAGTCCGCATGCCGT…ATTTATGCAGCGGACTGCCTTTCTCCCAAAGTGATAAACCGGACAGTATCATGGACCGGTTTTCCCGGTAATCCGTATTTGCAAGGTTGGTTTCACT; site = the 11-nt target
Quick one: just the number, no unit, thanks!

Worked cases, answers included:
INSERT INTO results (query_sequence, value_observed) VALUES
  ('GAGTCCAAGTGGGTTCTAACCTGTTGCGTAG [GAGTCCACTAC_LTGcore_AG_RTGcore_CT] (site GAGTCCACTAC) (LTG core: AG, RTG core: CT)', 0.075),
  ('AAACATGTCTGGGTTCTAACCTGTTGCCTGA [AAACATGCTAG_LTGcore_TC_RTGcore_TC] (site AAACATGCTAG) (LTG core: TC, RTG core: TC)', 0.0728),
  ('AGGCGGTTATGGGTTCTAACCTGTTGCTTTA [AGGCGGTCTAA_LTGcore_TA_RTGcore_TA] (site AGGCGGTCTAA) (LTG core: TA, RTG core: TA)', 0.025),
  ('AGGCGGTTTTGGGTTCTAACCTGTTGCTTAG [AGGCGGTCTAA_LTGcore_TT_RTGcore_CT] (site AGGCGGTCTAA) (LTG core: TT, RTG core: CT)', 0.104);

Pending sequence:
[ask] Assign recombinant barcode read abundance (log10) to the following record: TGATACCATTGGGTTCTAACCTGTTGCGTAG [TGATACCCTAC_LTGcore_AT_RTGcore_CT] (site TGATACCCTAC) (LTG core: AT, RTG core: CT)
[reply] 0.0337

Taken from the supplement of paper PMC11208160.
